Provide the recorded polymerase ribozyme fitness (log ratio) for the entries that follow.
B1: TPR 5TU (parent)
chain: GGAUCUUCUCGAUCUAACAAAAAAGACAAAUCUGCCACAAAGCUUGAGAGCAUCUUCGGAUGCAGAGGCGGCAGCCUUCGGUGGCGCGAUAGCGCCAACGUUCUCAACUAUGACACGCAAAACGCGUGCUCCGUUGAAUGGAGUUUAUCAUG

# Variants of: B1
# PROTOCOL DETAILS: polymerase ribozyme fitness, log enrichment relative to wild type (log ratio); higher = more active; in vitro selection for triplet polymerase activity
Variants at the floor of the assay were thinned out.

Return polymerase ribozyme fitness (log ratio) for the following variant: U55G A60G 0.467

Give the reported polymerase ribozyme fitness (log ratio) for this variant. A52G U55A C87G ≤ -4.2

Indicate its recorded polymerase ribozyme fitness (log ratio); the variant in question is A28U G68U C99U A110G ≤ -4.2

Return reported polymerase ribozyme fitness (log ratio). Input variant: A3U U15G C51A G84U U151G ≤ -4.2

Consider the variant A107C C118U and give its recorded polymerase ribozyme fitness (log ratio). ≤ -4.2

Look up and state reported polymerase ribozyme fitness (log ratio) for A30G G42A U55G G65A C76G C87G A106U G143A A147C ≤ -4.2

Given A19C G86C C99U , respond with its polymerase ribozyme fitness (log ratio). -2.28

Indicate its recorded polymerase ribozyme fitness (log ratio); the variant in question is G65C G88U A106U G140C ≤ -4.2

Provide polymerase ribozyme fitness (log ratio) value for the following variant: A30U G62U U90G C95A A107C C118A A142G ≤ -4.2

Report polymerase ribozyme fitness (log ratio), nothing else, for this variant: G25U G48A G84A C96G -4.04

Output measured polymerase ribozyme fitness (log ratio) for this item: C51G A64C C69U G80A G86A C96U C114A ≤ -4.2

Supply reported polymerase ribozyme fitness (log ratio) belonging to this variant: C38A A47C C96A -1.63

Complete the entry with polymerase ribozyme fitness (log ratio) for A22U A97G A122G 0.332

Consider the variant G58A G83U and give its recorded polymerase ribozyme fitness (log ratio). 0.174

State its polymerase ribozyme fitness (log ratio): C114G G133A ≤ -4.2

Please report the measured polymerase ribozyme fitness (log ratio) for U53A C79U A89G U134G ≤ -4.2

Tell us which polymerase ribozyme fitness (log ratio) value is on record for C27G A41C C54G C87G C114G C125A ≤ -4.2

Assign polymerase ribozyme fitness (log ratio) to the following record: G83U C95G G126U -1.85

Kindly indicate its recorded polymerase ribozyme fitness (log ratio). Item: C93U G141A U146G -3.48

// Input: A40C A60U . Output its polymerase ribozyme fitness (log ratio) only. 0.0412

Find the measured polymerase ribozyme fitness (log ratio) of A49G C85G C93U and report it. ≤ -4.2

Return polymerase ribozyme fitness (log ratio) (reported value) for this variant: A24C A73U C79U G88U G126A ≤ -4.2
